// provenance: patent US11420969B2

- targetSystem: CYP1A2 (Homo sapiens, UniProt P05177)
- Construct: from tissue; host or cells: human liver microsomes
- Sequence (P05177 whole entry): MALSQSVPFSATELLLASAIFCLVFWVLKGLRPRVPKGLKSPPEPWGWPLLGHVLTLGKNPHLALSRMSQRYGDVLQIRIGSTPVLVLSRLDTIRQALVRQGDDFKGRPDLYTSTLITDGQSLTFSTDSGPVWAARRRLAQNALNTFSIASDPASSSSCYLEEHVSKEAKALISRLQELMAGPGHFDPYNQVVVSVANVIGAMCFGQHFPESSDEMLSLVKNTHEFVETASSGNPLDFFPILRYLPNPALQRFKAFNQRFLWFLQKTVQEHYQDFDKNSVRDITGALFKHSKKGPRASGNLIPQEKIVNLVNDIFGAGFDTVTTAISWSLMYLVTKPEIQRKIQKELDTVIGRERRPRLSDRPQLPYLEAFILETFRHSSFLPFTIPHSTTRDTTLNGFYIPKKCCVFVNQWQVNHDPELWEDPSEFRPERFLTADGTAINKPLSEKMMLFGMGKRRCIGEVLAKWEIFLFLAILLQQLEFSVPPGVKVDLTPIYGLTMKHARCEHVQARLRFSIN
- procedureDetails: CYP inhibition assay, human liver microsomes, substrate tacrine
- Assay type: in vitro ADME
- experimentalParameters: human liver microsomes, 10 min incubation, LC-MS/MS; read-out: CYP Inhibition Activity (IC50/nM) CYP1A2

[
  {
    "compound": "Cc1ccc(N2CCC(C)(O)C2)c(NC(=O)c2ccc(C3CCOCC3)o2)c1 (racemic) [Example 58]",
    "IC50": "> 30000 nM"
  },
  {
    "compound": "C[C@]1(O)CCN(c2ccc(C(F)(F)F)cc2NC(=O)c2ccc(C3CCOCC3)o2)C1 [Example 51]",
    "IC50": "> 30000 nM"
  },
  {
    "compound": "C[C@]1(O)CCN(c2ccc(C(F)(F)F)cc2NC(=O)c2ccc(-c3ccncc3)o2)C1 [Example 53]",
    "IC50": "2810 nM"
  },
  {
    "compound": "CC1(CO)CCN(c2ccc(C(F)(F)F)cc2NC(=O)c2ccc(-c3ccncc3)o2)CC1 [Example 24]",
    "IC50": "> 30000 nM"
  },
  {
    "compound": "CC1(C(=O)N2CCCC2)CCN(c2ccc(C(F)(F)F)cc2NC(=O)c2ccc(C3CCOCC3)o2)CC1 [Example 88]",
    "IC50": "> 30000 nM"
  },
  {
    "compound": "CC1(O)CCCN(c2ccc(C3CC3)cc2NC(=O)c2ccc(C3CCOCC3)o2)CC1 (racemic) [Example 42]",
    "IC50": "> 30000 nM"
  },
  {
    "compound": "CNCC1(C)CCN(c2ccc(C(F)(F)F)cc2NC(=O)c2ccc(-c3ccncc3)o2)CC1 [Example 79]",
    "IC50": "> 30000 nM"
  },
  {
    "compound": "O=C(Nc1cc(C2CC2)ccc1N1CCCC(O)CC1)c1ccc(C2CCOCC2)o1 (racemic) [Example 49]",
    "IC50": "7340 nM"
  }
]

----------
- targetSystem: CYP2D6 (Homo sapiens, UniProt P10635)
- Construct: from tissue; host or cells: human liver microsomes
- Sequence (P10635 whole entry): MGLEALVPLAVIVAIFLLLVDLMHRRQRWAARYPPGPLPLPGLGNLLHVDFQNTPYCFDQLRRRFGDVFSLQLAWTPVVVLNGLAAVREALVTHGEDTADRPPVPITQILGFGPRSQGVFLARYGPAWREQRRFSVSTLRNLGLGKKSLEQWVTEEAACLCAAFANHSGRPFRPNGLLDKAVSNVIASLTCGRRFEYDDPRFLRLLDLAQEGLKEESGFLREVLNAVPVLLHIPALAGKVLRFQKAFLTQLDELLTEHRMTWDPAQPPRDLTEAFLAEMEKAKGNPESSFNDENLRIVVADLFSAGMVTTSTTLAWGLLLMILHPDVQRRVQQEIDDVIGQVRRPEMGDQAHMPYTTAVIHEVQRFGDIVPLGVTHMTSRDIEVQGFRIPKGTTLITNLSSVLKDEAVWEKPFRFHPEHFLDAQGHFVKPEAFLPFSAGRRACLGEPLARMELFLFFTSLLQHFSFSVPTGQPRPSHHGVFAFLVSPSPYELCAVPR
- procedureDetails: biochemical
- Type: in vitro ADME
pIC50: −log10 of the molar value.
metric: pIC50

[
  {
    "compound": "O=C(Nc1cc(C(F)(F)F)ccc1N1CCN(Cc2cc[nH]n2)CC1)c1ccc(C2CCOCC2)o1 [Reference Example 3, reference compound]",
    "metric": "pIC50",
    "limitSign": "=",
    "reading": 5.15
  },
  {
    "compound": "CN(C)C(=O)C1(C)CCN(c2ccc(Cl)cc2NC(=O)c2ccc(C3CCOCC3)o2)CC1",
    "metric": "pIC50",
    "limitSign": "=",
    "reading": 4.91
  },
  {
    "compound": "CC1(O)CCN(c2ccc(C(F)(F)F)cc2NC(=O)c2ccc(-c3ccncc3)o2)CC1",
    "metric": "pIC50",
    "limitSign": "=",
    "reading": 5.46
  },
  {
    "compound": "O=C(Nc1cc(C2CC2)ccc1N1CCC(O)CC1)c1ccc(C2CCOCC2)o1",
    "metric": "pIC50",
    "limitSign": "<",
    "reading": 4.52
  }
]

----------
Parameter: IC50. Scope: all listed entries.
- targetSystem: CYP1A2 (Homo sapiens)
- Construct: from tissue; host or cells: human liver microsomes
- procedureDetails: CYP inhibition assay, human liver microsomes, substrate tacrine
- Type: in vitro ADME
- experimentalParameters: human liver microsomes, 10 min incubation, LC-MS/MS; read-out: CYP Inhibition Activity (IC50/nM) CYP1A2
metric: IC50

[
  {
    "molecule": "COc1ccc(N2CCC(C)(CN(C)C)CC2)c(NC(=O)c2ccc(C3CCOCC3)o2)c1",
    "metric": "IC50",
    "reading": "> 30000 nM"
  },
  {
    "molecule": "O=C(Nc1cc(C(F)(F)F)ccc1N1CCC2(CCCC2)CC1)c1ccc(C2CCOCC2)o1",
    "metric": "IC50",
    "reading": "> 30000 nM"
  },
  {
    "molecule": "CC1(O)CCCN(c2ccc(C(F)(F)F)cc2NC(=O)c2ccc(C3CCOCC3)o2)CC1 (racemic)",
    "metric": "IC50",
    "reading": "> 30000 nM"
  },
  {
    "molecule": "CC1(C(N)=O)CCN(c2ccc(C(F)(F)F)cc2NC(=O)c2ccc(-c3ccncc3)o2)CC1",
    "metric": "IC50",
    "reading": "> 30000 nM"
  },
  {
    "molecule": "C[C@@]1(O)CCN(c2ccc(C(F)(F)F)cc2NC(=O)c2ccc(-c3ccncc3)o2)C1",
    "metric": "IC50",
    "reading": "4360 nM"
  },
  {
    "molecule": "CC1CCN(c2ccc(C(F)(F)F)cc2NC(=O)c2ccc(C3CCOCC3)o2)CC1",
    "metric": "IC50",
    "reading": "4700 nM"
  },
  {
    "molecule": "CC1(CN2CCOCC2)CCN(c2ccc(C(F)(F)F)cc2NC(=O)c2ccc(C3CCOCC3)o2)CC1",
    "metric": "IC50",
    "reading": "> 30000 nM"
  },
  {
    "molecule": "CC1(C(=O)N2CCCCC2)CCN(c2ccc(C(F)(F)F)cc2NC(=O)c2ccc(C3CCOCC3)o2)CC1",
    "metric": "IC50",
    "reading": "> 30000 nM"
  }
]

----------
- targetSystem: CYP2D6 (Homo sapiens, UniProt P10635)
- Construct: from tissue; host or cells: human liver microsomes
- procedureDetails: biochemical
- Assay type: in vitro ADME
Each record is given T if its reported IC50 is strictly below 10 µM. Records at or above 10 µM are given F.

[
  {
    "molecule": "O=C(Nc1cc(C(F)(F)F)ccc1N1CCC(O)CC1)c1ccc(C2CCOCC2)o1",
    "targetSystem": "CYP2D6 (Homo sapiens, UniProt P10635)",
    "labelValue": "F"
  },
  {
    "molecule": "CC1(O)CCCN(c2ccc(Cl)cc2NC(=O)c2ccc(-c3ccncc3)o2)CC1 (racemic)",
    "targetSystem": "CYP2D6 (Homo sapiens, UniProt P10635)",
    "labelValue": "F"
  },
  {
    "molecule": "CNCC1(C)CCN(c2ccc(C(F)(F)F)cc2NC(=O)c2ccc(C3CCOCC3)o2)CC1",
    "targetSystem": "CYP2D6 (Homo sapiens, UniProt P10635)",
    "labelValue": "T"
  },
  {
    "molecule": "Cc1ccc(N2CCC(O)(CC3CC3)CC2)c(NC(=O)c2ccc(C3CCOCC3)o2)c1",
    "targetSystem": "CYP2D6 (Homo sapiens, UniProt P10635)",
    "labelValue": "T"
  },
  {
    "molecule": "CCC1(O)CCN(c2ccc(C(F)(F)F)cc2NC(=O)c2ccc(C3CCOCC3)o2)CC1",
    "targetSystem": "CYP2D6 (Homo sapiens, UniProt P10635)",
    "labelValue": "F"
  },
  {
    "molecule": "CC1(CN2CCCC2)CCN(c2ccc(C(F)(F)F)cc2NC(=O)c2ccc(C3CCOCC3)o2)CC1",
    "targetSystem": "CYP2D6 (Homo sapiens, UniProt P10635)",
    "labelValue": "T"
  },
  {
    "molecule": "CNC(=O)C1(C)CCN(c2ccc(C(F)(F)F)cc2NC(=O)c2ccc(-c3ccncc3)o2)CC1",
    "targetSystem": "CYP2D6 (Homo sapiens, UniProt P10635)",
    "labelValue": "T"
  },
  {
    "molecule": "CNC(=O)C1(C)CCN(c2ccc(C(F)(F)F)cc2NC(=O)c2ccc(C3CCOCC3)o2)CC1",
    "targetSystem": "CYP2D6 (Homo sapiens, UniProt P10635)",
    "labelValue": "T"
  },
  {
    "molecule": "Cc1ccc(N2CCC(C)(O)CC2)c(NC(=O)c2ccc(-c3ccncc3)o2)c1",
    "targetSystem": "CYP2D6 (Homo sapiens, UniProt P10635)",
    "labelValue": "T"
  },
  {
    "molecule": "CN(C)CC1(C)CCN(c2ccc(Cl)cc2NC(=O)c2ccc(C3CCOCC3)o2)CC1",
    "targetSystem": "CYP2D6 (Homo sapiens, UniProt P10635)",
    "labelValue": "T"
  },
  {
    "molecule": "O=C(Nc1cc(Cl)ccc1N1CCC(O)CC1)c1ccc(C2CCOCC2)o1",
    "targetSystem": "CYP2D6 (Homo sapiens, UniProt P10635)",
    "labelValue": "F"
  },
  {
    "molecule": "CN(C)C(=O)C1(C)CCN(c2ccc(C(F)(F)F)cc2NC(=O)c2ccc(-c3ccncc3)o2)CC1",
    "targetSystem": "CYP2D6 (Homo sapiens, UniProt P10635)",
    "labelValue": "T"
  },
  {
    "molecule": "CC1(C(=O)N2CCCCC2)CCN(c2ccc(C(F)(F)F)cc2NC(=O)c2ccc(C3CCOCC3)o2)CC1",
    "targetSystem": "CYP2D6 (Homo sapiens, UniProt P10635)",
    "labelValue": "F"
  },
  {
    "molecule": "CC1CCN(c2ccc(C(F)(F)F)cc2NC(=O)c2ccc(-c3ccncc3)o2)CC1",
    "targetSystem": "CYP2D6 (Homo sapiens, UniProt P10635)",
    "labelValue": "T"
  },
  {
    "molecule": "CC1(C(=O)N2CCCC2)CCN(c2ccc(C(F)(F)F)cc2NC(=O)c2ccc(C3CCOCC3)o2)CC1",
    "targetSystem": "CYP2D6 (Homo sapiens, UniProt P10635)",
    "labelValue": "F"
  },
  {
    "molecule": "O=C(Nc1cc(C(F)(F)F)ccc1N1CCCC(O)CC1)c1ccc(-c2ccncc2)o1 (racemic)",
    "targetSystem": "CYP2D6 (Homo sapiens, UniProt P10635)",
    "labelValue": "F"
  }
]
